- Test system: pigweed (Amaranthus retroflexus)
- method: Test C greenhouse herbicide test, pre- and postemergence
- Assay type: in vivo
- condition_details: postemergence, 62 g ai/ha; scale 0 to 100, 0 no effect, 100 complete control
So I've got a bunch of molecules here, and I need their Pigweed plant response rating values.
Please reply with the number alone, leaving off any unit.

The molecule `Cc1ccc2ccccc2c1-c1c(OC(=O)OC(C)C)c(C)nn(C)c1=O` on pigweed (Amaranthus retroflexus): Pigweed plant response rating was 90

The molecule `COC(=O)Oc1c(C)nn(C)c(=O)c1-c1c(C)sc2ccc(C)cc12` on pigweed (Amaranthus retroflexus): Pigweed plant response rating was 90

The molecule `Cc1nn(C)c(=O)c(-c2cccc3ccccc23)c1O` on pigweed (Amaranthus retroflexus): Pigweed plant response rating was 90

The molecule `COC(=O)Oc1cnn(C)c(=O)c1-c1c(C)sc2ccccc12` on pigweed (Amaranthus retroflexus): Pigweed plant response rating was 50

The molecule `Cn1nc(Br)c(O)c(-c2cccc3ccccc23)c1=O` on pigweed (Amaranthus retroflexus): Pigweed plant response rating was 90

The molecule `CCc1oc2ccc(C)cc2c1-c1c(O)c(C)nn(C)c1=O` on pigweed (Amaranthus retroflexus): Pigweed plant response rating was 60

The molecule `Cc1nn(C)c(=O)c(-c2c(C)sc3c(C)cc(Cl)cc23)c1O` on pigweed (Amaranthus retroflexus): Pigweed plant response rating was 55

The molecule `CCC(=O)Oc1c(C)nn(C)c(=O)c1-c1c(C)ccc2ccccc12` on pigweed (Amaranthus retroflexus): Pigweed plant response rating was 60

The molecule `Cc1ccc2sc(Br)c(-c3c(O)c(C)nn(C)c3=O)c2c1` on pigweed (Amaranthus retroflexus): Pigweed plant response rating was 98

The molecule `Cc1nn(C)c(=O)c(-c2ccc(Br)c3ccccc23)c1O` on pigweed (Amaranthus retroflexus): Pigweed plant response rating was 95

The molecule `CCc1sc2ccc(C)cc2c1-c1c(O)c(C)nn(C)c1=O` on pigweed (Amaranthus retroflexus): Pigweed plant response rating was 90
